- test.system: Carbonic anhydrase 2 (Homo sapiens) (UniProt P00918)
- test.protocol: CAII small-molecule binders, profiling panel, biochemical, small-molecule microarray, Alexa647-labelled CAII (AID 1122)
- cond: CAII-A647 binding fluorescence, higher = more signal
metric.name: composite z-score
Numbers only.

// known answers, use as guide
compound	composite z-score
CC=CC(O)C1C=CC2C(=O)N(c3ccccc3)C(=O)C2N1Nc1ccccc1 (stereo unspecified)	0.681
CC(C)CN1C(=O)[C@@]2(c3ccc([N+](=O)[O-])cc3)CC(=O)N(CC34CC5CC(CC(C5)C3)C4)[C@@H]2c2ccc(CO)cc21	0.411
COCCOC(=O)N1C(=O)[C@@]2(c3cc(C#CC4(O)CCCCCC4)ccc31)[C@H](C(N)=O)[C@H]1C(=O)O[C@H](c3ccccc3)[C@H](c3ccccc3)N1[C@@H]2c1ccccc1OCCO	0.541
O=C1C[C@]2(c3ccc([N+](=O)[O-])cc3)C(=O)N(Cc3ccccc3)c3cc(CO)ccc3[C@H]2N1CC12CC3CC(CC(C3)C1)C2	-0.406
CC(C)(C)OC(=O)CC[C@]1(C(=O)O)N=C(c2ccc(OCCCO)cc2)O[C@H]1c1ccccc1CN=[N+]=[N-]	0.917

Each compound below has a reported value. Please supply its composite z-score.
1. Cc1ccc(F)cc1S(=O)(=O)N[C@@H]1CCN(Cc2ccc(OC(C)C)cc2)C1
2. O=C1NC(=O)C2C1C=CC(C(O)c1ccc(Br)cc1)N2Nc1ccccn1 (stereo unspecified)
3. CCOC(=O)[C@@H]1[C@@H]2C(=O)N(CC)C(=O)[C@@H]2C[C@@H]1Sc1ccccc1
4. CCOC(=O)C[C@H]1[C@H](OC(=O)c2ccccc2-c2ccccc2)[C@@H](NC(=O)c2ccc3ccccc3n2)c2cc(OCCCO)ccc2N1C(=O)c1ccc2ccccc2n1
5. CON(C)C(=O)C=C1C[C@@H](c2cccc(Cl)c2)O[C@@H](c2cccc(Cl)c2)O1
6. COc1cc2c(cc1O)C(C)N(Cc1cc3c(cc1Br)OCO3)CC2 (stereo unspecified)

[reply]
0.359
0.822
0.36
0.0023
0.628
0.887

Each compound below has a reported value. Please supply its composite z-score.
1. CC(C)C(O)C1C=CC2C(=O)N(C)C(=O)C2N1N(c1ccccc1)c1ccccc1 (stereo unspecified)
2. C=C(/C(=C/C[C@@H](OC(=O)c1ccncc1)c1ccccc1OCCO)c1cc(C(=O)OC)ccc1OC)C(C)C
3. C=CCN1C(=O)[C@@]2(O[C@@H](CCn3cc([C@H](O)c4ccccc4)nn3)[C@H]([Si](C)(C)c3ccc(OC)cc3)[C@H]2C)c2ccccc21
4. COc1ccccc1CN1C(=O)c2ccccc2[C@@H](C(=O)NC(C)C)[C@@H]1c1ccc(CO)cc1

[reply]
[0.697, 0.676, 0.499, 0.535]

[ask] # return recorded composite z-score for input `CC(C)C(=C=CC[C@@H](O)c1ccccc1OCCO)C[C@@H](O)COCc1ccccc1`
[reply] 0.813
